Source listed as ChEMBL document CHEMBL1133577.

Reported pIC50, Matrix metalloproteinase-9 (Homo sapiens, UniProt P14780).
Give bare numbers, as −log10 of the molar value.

# example entries with known answers
INSERT INTO results (compound, value_observed) VALUES
  ('COc1ccc(S(=O)(=O)N2CCN(C(=O)c3cccs3)CC2C(=O)NO)cc1 (stereo not given)', 8.89),
  ('COc1ccc(S(=O)(=O)N2CCN(Cc3ccccc3)CC2C(=O)NO)cc1 (stereo not given)', 8.12),
  ('COc1ccc(S(=O)(=O)N2CCN(C(=O)OCc3ccccc3)CC2C(=O)NO)cc1 (stereo not given)', 8.72),
  ('COc1ccc(S(=O)(=O)N2CCN(C(=O)c3snnc3C)CC2C(=O)NO)cc1 (stereo not given)', 7.77),
  ('COc1ccc(S(=O)(=O)N2CCN(C(=O)[C@@H](O)C(C)C)CC2C(=O)NO)cc1 (stereo not given in full)', 8.36),
  ('COc1ccc(S(=O)(=O)N2CCN(C(=O)Nc3cccc(OC)c3)CC2C(=O)NO)cc1 (stereo not given)', 8.39),
  ('COc1ccc(S(=O)(=O)N2CCN(C(=O)C3CCCCC3)CC2C(=O)NO)cc1 (stereo not given)', 8.74),
  ('COc1ccc(S(=O)(=O)N2CCN(C(N)=O)CC2C(=O)NO)cc1 (stereo not given)', 8.64);

For every listed record, write down its pIC50.
1. COc1ccc(S(=O)(=O)N2CCN(C(C)=O)CC2C(=O)NO)cc1 (stereo not given)
2. COc1ccc(S(=O)(=O)N2CCN(c3nc(-c4ccccc4)cs3)CC2C(=O)NO)cc1 (stereo not given)

**Result**
1: 8.74; 2: 7.55

For every listed record, write down its pIC50.
1. COc1ccc(S(=O)(=O)N2CCN(C(=O)c3ccco3)CC2C(=O)NO)cc1 (stereo not given)
2. COc1ccc(S(=O)(=O)N2CCN(C(=O)c3c(-c4ccccc4)noc3C)CC2C(=O)NO)cc1 (stereo not given)
3. COc1ccc(S(=O)(=O)N2CCN(C(=O)N3CCOCC3)CC2C(=O)NO)cc1 (stereo not given)
4. COc1ccc(S(=O)(=O)N2CCN(S(=O)(=O)c3c(C)noc3C)CC2C(=O)NO)cc1 (stereo not given)
5. COc1ccc(S(=O)(=O)N2CCN(C(=O)OCc3cccnc3)CC2C(=O)NO)cc1 (stereo not given)

**Result**
1: 8.80; 2: 7.66; 3: 8.08; 4: 8.62; 5: 8.72

For every listed record, write down its pIC50.
1. COc1ccc(S(=O)(=O)N2CCN(C(=O)c3cccnc3)CC2C(=O)NO)cc1 (stereo not given)
2. COc1ccc(S(=O)(=O)N2CCNCC2C(=O)NO)cc1 (stereo not given)

**Result**
1: 7.49; 2: 8.16

For every listed record, write down its pIC50.
1. CCOCCCOC(=O)N1CCN(S(=O)(=O)c2ccc(OC)cc2)C(C(=O)NO)C1 (stereo not given)
2. CCCCCCN(C)C(=O)N1CCN(S(=O)(=O)c2ccc(Br)cc2)C(C(=O)NO)C1 (stereo not given)

**Result**
9.22
7.89
